Target: human MLKL (full length) (Homo sapiens (Human))
Sequence (Q8NB16 whole entry): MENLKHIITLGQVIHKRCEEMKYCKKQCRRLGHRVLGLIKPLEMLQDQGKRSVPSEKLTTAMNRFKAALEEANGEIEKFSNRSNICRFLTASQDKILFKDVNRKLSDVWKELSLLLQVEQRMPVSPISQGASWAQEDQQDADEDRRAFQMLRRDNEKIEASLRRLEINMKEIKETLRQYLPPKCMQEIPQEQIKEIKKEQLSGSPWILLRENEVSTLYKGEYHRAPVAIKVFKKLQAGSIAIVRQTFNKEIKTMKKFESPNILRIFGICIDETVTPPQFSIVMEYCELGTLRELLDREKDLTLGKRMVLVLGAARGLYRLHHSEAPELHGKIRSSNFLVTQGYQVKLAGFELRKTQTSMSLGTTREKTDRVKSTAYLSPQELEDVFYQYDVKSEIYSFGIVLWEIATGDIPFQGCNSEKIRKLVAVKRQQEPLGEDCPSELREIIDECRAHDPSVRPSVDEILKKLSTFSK
Assay: KINOMEscan binding assay, human MLKL (full length)
Conditions: hMLKL, Table 25; read-out: MLKL (KD)
pKd: −log10 of the molar value.
For each record, write down the corresponding pKd.

Return reported pKd values for all items listed beneath this line.
1. C[C@H](Oc1cc(-c2nn(C)c3c(-c4cnn(C5CCN(CCC6CCN(c7cccc8c7C(=O)N(C7CCC(=O)NC7=O)C8=O)CC6)CC5)c4)cnc(N)c23)ccc1NS(=O)(=O)C(F)F)c1ccc(F)cc1 (some centres unmarked)
2. Cc1ncsc1-c1ccc(CNC(=O)[C@@H]2C[C@@H](O)CN2C(=O)[C@@H](NC(=O)COCCN2CCC(n3cc(-c4cnc(N)c5c(-c6ccc(NS(=O)(=O)C(F)F)c(O[C@@H](C)c7ccc(F)cc7)c6)nn(C)c45)cn3)C2)C(C)(C)C)cc1 (some centres unmarked)
3. Cc1ncsc1-c1ccc(CNC(=O)[C@@H]2C[C@@H](O)CN2C(=O)[C@@H](NC(=O)c2cccc(OCCn3cc(-c4cnc(N)c5c(-c6ccc(NS(=O)(=O)C(F)F)c(O[C@@H](C)c7ccc(F)cc7)c6)nn(C)c45)cn3)c2)C(C)(C)C)cc1
4. C[C@H](Oc1cc(-c2nn(C)c3c(-c4cnn(C5CCN(C(=O)CC6CCN(c7cccc8c7C(=O)N(C7CCC(=O)NC7=O)C8=O)CC6)CC5)c4)cnc(N)c23)ccc1NS(=O)(=O)C(F)F)c1ccc(F)cc1 (some centres unmarked)
5. Cc1ncsc1-c1ccc(CNC(=O)[C@@H]2C[C@@H](O)CN2C(=O)[C@@H](NC(=O)CCCCC#Cc2cnc(N)c3c(-c4ccc(NS(=O)(=O)C(F)F)c(O[C@@H](C)c5ccc(F)cc5)c4)nn(C)c23)C(C)(C)C)cc1
6. Cc1ncsc1-c1ccc(CNC(=O)[C@@H]2C[C@@H](O)CN2C(=O)[C@@H](NC(=O)CCN2CCC(C#Cc3cnc(N)c4c(-c5ccc(NS(=O)(=O)C(F)F)c(O[C@@H](C)c6ccc(F)cc6)c5)nn(C)c34)CC2)C(C)(C)C)cc1
7. C[C@H](Oc1cc(-c2nn(C)c3c(-c4cnn(C5CCN(CCc6ccc7c(c6)C(=O)N(C6CCC(=O)NC6=O)C7=O)CC5)c4)cnc(N)c23)ccc1NS(=O)(=O)C(F)F)c1ccc(F)cc1 (some centres unmarked)

> 8.00
> 8.00
6.00 to 8.00
> 8.00
6.00 to 8.00
> 8.00
> 8.00

Which pKd is listed for CCS(=O)(=O)Nc1ccc(-c2n[nH]c3c(-c4cnn(CCOCC(=O)N[C@H](C(=O)N5C[C@H](O)C[C@H]5C(=O)NCc5ccc(-c6scnc6C)cc5)C(C)(C)C)c4)cnc(N)c23)cc1OCc1ccc(F)cc1 ?
> 8.00
